Cited source: ChEMBL document CHEMBL4043256

Below are IC50 values recorded for Serine/threonine-protein kinase pim-2 (Homo sapiens).
Give bare numbers, in µM.

SMILES STR: Cc1c(-c2ccc(N3CCNCC3)cc2)n(C)c2nc(C(N)=O)cc(Cl)c12
MEASUREMENT LABEL: IC50
UNIT NAME: µM
TEST RESULT: 1.27

Next up:
In: Could you share which IC50 value was measured for CN(C)Cc1ccc(-c2c(-c3ccc(N4CCN(C)CC4)cc3)n(C)c3nccc(Cl)c23)cc1 ?
Out: 3.3

----------
biological target: Serine/threonine-protein kinase pim-3 (Homo sapiens, UniProt Q86V86)
Kindly supply the reported pIC50 values for the records listed here.
One number for each entry, as −log10 of the molar value.

// for each compound below, give its pIC50
1. Cn1c(-c2ccc(N3CCNCC3)cc2)c(-c2ccc(CO)cc2)c2c(Cl)ccnc21
2. CN1CCC(NC(=O)c2ccc(-c3c(-c4ccc(N5CCN(C)CC5)cc4)n(C)c4nccc(Cl)c34)cc2)CC1

Out:
4.97
6.31
